- System: E. faecalis ATCC51299-VRE
- experiment: MIC and MBC microtiter plate assay, also with different inocula
- Format: cell-based
- conditions: E. faecalis ATCC51299-VRE; value in brackets
observable: log10(MIC) (log10 of the value in µM)
# values: log10(MIC), units µM

Bench note: what log10(MIC) did Clc1ccc(Cl)c(-c2ccc(/C=C/c3cc[n+](-c4ncccn4)cc3)o2)c1.F[P-](F)(F)(F)(F)F [PB5] show?
0.87

Look up log10(MIC): C[n+]1c(/C=C/c2ccc(-c3ccccc3)s2)ccc2ccccc21.[I-] [PB3]
1.85

Look at this molecule and give its reported log10(MIC). CCCCN(CCCC)c1ccc(-c2ccc(C=C3CCCc4c[n+](CC)ccc43)s2)s1.[I-] [PB8]
0.84

What log10(MIC) value was documented for this molecule, CN(C)c1ccc(/C=C/c2ccc3ccccc3[n+]2C)cc1.[I-] [PB1] ?
1.89

// returns reported log10(MIC) for input CN(C)c1ccc(/C=C/c2cccc(/C=C/c3ccc(N(C)C)cc3)[n+]2C)cc1.[I-] [PB4]
-0.01

What value of log10(MIC) has been reported for the following molecule? CC[n+]1ccc2c(c1)CCCC2=Cc1ccc(-c2ccc(Cl)cc2)o1.[I-] [PB7]
1.24

Please report the recorded log10(MIC) for C[n+]1ccc(/C=C/c2ccc(-c3cc(Cl)ccc3Cl)o2)cc1.F[P-](F)(F)(F)(F)F [PB6] .
1.84
